All values here come from patent US20090215893A1.

# Tested on: back of hairless mice (HR-1), 10 mass % oleic acid applied
# experimental.protocol: Inhibiting effect against rough skin induced by oleic acid application (transepidermal water loss)
# Type: in vivo
# Parameters: unit not given here
# reported.conditions: sample 3 mass %, three days, average of four animals; rough skin worse as value increases; control 12.0
Use 7 as the dividing line for ΔTEWL value, with the line itself on the yes side and lower values as no.

// below: answered molecules
>>> qualitative_label("CCN[C@H](C)C(=O)O")
"yes"
>>> qualitative_label("O=C(NC(CO)C(=O)O)OCc1ccccc1 (racemic)")
"no"
>>> qualitative_label("CCNC(C)C(=O)O (racemic)")
"yes"
>>> qualitative_label("CN[C@H](C)C(=O)O")
"yes"
>>> qualitative_label("CCNC(CO)C(=O)O (racemic)")
"yes"

Test whether the molecule CNC(C)C(=O)O (racemic) records ΔTEWL value of 7 or higher.
yes

Threshold query (ΔTEWL value >= 7) on O=C(O)[C@@H](CO)NS(=O)(=O)c1ccccc1
no

Decide: is the reported value of ΔTEWL value for O=C(O)C(CO)NC1CCCCC1 (racemic) equal to or greater than 7?
no

Record CC(NC(=O)OCc1ccccc1)C(=O)O (racemic) ; criterion: ΔTEWL value no lower than 7. Met?
no

Textbook exercise: given the entry CCN[C@H](CO)C(=O)O , state whether its ΔTEWL value is greater than or equal to 7.
yes

Please tell me: is the molecule CNC(CO)C(=O)O (racemic) at or over 7 in terms of ΔTEWL value?
yes

Please tell me: is the molecule CC(=O)NCC(=O)O [N-acetyl-glycine, reference compound] at or over 7 in terms of ΔTEWL value?
yes
